Provide the recorded ED50 for the entries that follow.
- System: phenylquinone-induced writhing in mice
- Protocol Details: Phenylquinone Writhing Test
- Type: in vivo, female white mice
- Particulars: mouse; oral; effective analgesic dose for 50% of the mice; observed 10 minutes from 30 minutes after dosing

Prompt line: Requested field: ED50. Item: OC(c1cc(-c2ccccc2)c(-c2ccc(Cl)c(Cl)c2)[nH]1)(C(F)(F)F)C(F)(F)F
Response line: > 108 mg/kg

Prompt line: Requested field: ED50. Item: Cc1c(C(O)(C(F)(F)F)C(F)(F)F)[nH]c(-c2ccc(F)cc2)c1-c1ccc(F)cc1
Response line: > 135 mg/kg

Prompt line: Requested field: ED50. Item: OC(c1cc(-c2ccc(F)cc2)c(-c2ccc(Br)cc2)[nH]1)(C(F)(F)F)C(F)(F)F
Response line: > 135 mg/kg

Prompt line: Requested field: ED50. Item: COC(c1cc(-c2ccc(F)cc2)c(-c2ccc(F)cc2)n1C)(C(F)(F)F)C(F)(F)F
Response line: > 108 mg/kg

Prompt line: Requested field: ED50. Item: OC(c1cc(-c2ccc(F)cc2)c(-c2ccc(F)cc2)[nH]1)(C(F)(F)F)C(F)(F)F
Response line: > 108 mg/kg

Prompt line: Requested field: ED50. Item: Cn1c(C(OC(=O)c2ccccc2)(C(F)(F)F)C(F)(F)F)cc(-c2ccc(F)cc2)c1-c1ccc(F)cc1
Response line: > 108 mg/kg

Prompt line: Requested field: ED50. Item: OC(c1cc(-c2ccc(F)cc2)c(-c2ccc(F)cc2)[nH]1)(C(F)(F)Cl)C(F)(Cl)Cl (stereo not drawn)
Response line: > 108 mg/kg

Prompt line: Requested field: ED50. Item: Cc1ccc(-c2cc(C(O)(C(F)(F)F)C(F)(F)F)[nH]c2-c2ccc(C)cc2)cc1
Response line: > 108 mg/kg

Prompt line: Requested field: ED50. Item: OC(c1cc(-c2ccc(F)cc2)c(-c2ccc(F)cc2)[nH]1)(C(F)(F)F)C(F)(F)Cl (stereo not drawn)
Response line: > 108 mg/kg
